Overview of reported inhibition at 1 µM across a group of compounds:
# Tested on: SGC-7901
# test.protocol: Antitumor activity against SGC7901 cell line at 1 umol/L by SRB method
# Assay type: functional
# measurement.conditions: Homo sapiens
Unit % implied. Number only.

Previously resolved entries follow.
Which inhibition at 1 µM is reported for this compound? C/C(=N/N=C(\S)N1CCN(c2ccccn2)CC1)c1nccs1 60.8

Same thing, different compound: C/C(=N/N=C(\S)Nc1ccccc1)c1cccs1 0

Further, for C/C(=N/N=C(\S)Nc1ccc(C)cc1)c1cccs1 ? 15

Also, C/C(=N/N=C(\S)N1CCN(c2ccccn2)CC1)c1cccs1 please. 7.2

Entry to check: C/C(=N/N=C(\S)Nc1cc(Cl)cc(Cl)c1)c1cccs1 0

Continuing:
Give its inhibition at 1 µM value. Item: COc1ccc(N/C(S)=N/N=C(/C)c2cccs2)cc1 0

Field entry: C/C(=N/N=C(\S)Nc1ccc([N+](=O)[O-])cc1)c1cccs1 8.3

Next record, please: C/C(=N/N=C(\S)Nc1cccc2ccccc12)c1cccs1 13.5

Now consider C/C(=N/N=C(\S)N1CCN(c2ccccn2)CC1)c1ncccn1 and answer again. 90

Likewise for C/C(=N/N=C(\S)Nc1cccc(Cl)c1)c1cccs1 ? 0

Now try C/C(=N/N=C(\S)Nc1ccc(Cl)cc1)c1cccs1 . 0

Would you mind doing C/C(=N/N=C(\S)Nc1ccccc1C)c1cccs1 as well? 5.5
